For each record, write down the corresponding CC50 at 24 h.
Assay: Cytotoxicity assay, LX2
Format: cell-based
Settings: human, LX2 cells, viability dye, flow cytometry

CC(=O)N(c1cc(C(=O)O)cc2[nH]ccc12)[C@@H]1O[C@H](CO)[C@@H](S[C@@H]2O[C@H](CO)[C@H](O)[C@H](n3cc(-c4cccc(F)c4)nn3)[C@H]2O)[C@H](O)[C@H]1O [Compound 11] | > 300 µM

Any idea what its CC50 at 24 h is? The compound is OC[C@H]1O[C@@H](S[C@@H]2O[C@H](CO)[C@H](O)[C@H](n3cc(-c4cccc(F)c4)nn3)[C@H]2O)[C@H](O)[C@@H](n2cc(-c3cccc(F)c3)nn2)[C@H]1O [GB0139, reference compound] > 300 µM

---

Assay: Plasma stability assay, mouse plasma
Assay type: in vitro ADME
Conditions: 37 °C
Protocol: Test compounds (10 μM) were incubated with mouse, rat, or human pooled plasma from 50 donors (Biowest) at 37 °C for 20, 60, and 120 min. Reactions were terminated by adding four volumes of ice-cold methanol, followed by vigorous mixing. […] Samples were then analyzed on an Echo MS system (SCIEX) using multiple reaction monitoring (MRM). The only exception was compound 3af, which was analyzed by LC–MS/MS (SCIEX 6500 triple quadrupole) due to its weak ionization in Echo-MS.
For each record, write down the corresponding remaining at 2 h, 10 μM.
Give bare numbers, in %.

Solved entries (count: 3):
CC(=O)N(c1cc(C(=O)O)cc2[nH]ccc12)[C@@H]1O[C@H](CO)[C@@H](S[C@@H]2O[C@H](CO)[C@H](O)[C@H](n3cc(-c4cccc(F)c4)nn3)[C@H]2O)[C@H](O)[C@H]1O | 100
CC(=O)N(c1cc(C(=O)O)cc2[nH]ccc12)[C@@H]1O[C@H](CO)[C@@H](O[C@@H]2O[C@H](CO)[C@H](O)[C@H](O)[C@H]2O)[C@H](O)[C@H]1O | 76
CC(=O)N(c1cc(O)cc(C(=O)O)c1)[C@@H]1O[C@H](CO)[C@@H](O[C@@H]2O[C@H](CO)[C@H](O)[C@H](O)[C@H]2O)[C@H](O)[C@H]1O | 110

Could you tell me remaining at 2 h, 10 μM for each of these molecules? They are listed below.
1. OC[C@H]1O[C@@H](S[C@@H]2O[C@H](CO)[C@H](O)[C@H](n3cc(-c4cccc(F)c4)nn3)[C@H]2O)[C@H](O)[C@@H](n2cc(-c3cccc(F)c3)nn2)[C@H]1O [GB0139, reference compound]
2. CC(=O)c1c[nH]c2cc(C(=O)O)cc(N(C(C)=O)[C@@H]3O[C@H](CO)[C@@H](S[C@@H]4O[C@H](CO)[C@H](O)[C@H](n5cc(-c6cccc(F)c6)nn5)[C@H]4O)[C@H](O)[C@H]3O)c12

68
89

---

Biological target: human galectin-3C (Gal-3C, C-terminal CRD of galectin-3) (Homo sapiens)
Construct: only the C-terminal domain was used (Gal-3C); 6xHis tag with TEV protease site (N, cleaved yes); made in house; host or cells: BL21 Escherichia coli (pET-15b)
Sequence (P17931 118-248 limits assumed): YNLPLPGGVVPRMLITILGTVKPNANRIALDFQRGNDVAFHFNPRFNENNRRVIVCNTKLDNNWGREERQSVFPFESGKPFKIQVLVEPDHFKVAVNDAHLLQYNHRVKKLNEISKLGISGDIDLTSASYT
Test: Competitive fluorescence polarization assay, Gal-3C
Format: binding
Details: competitive fluorescence polarization; mean ± SD; read-out: Kd Gal-3C
reported endpoint: pKd
One number for each entry, as −log10 of the molar value.

CC(=O)N(c1ccc(F)c(F)c1)[C@@H]1O[C@H](CO)[C@@H](O[C@@H]2O[C@H](CO)[C@H](O)[C@H](O)[C@H]2O)[C@H](O)[C@H]1O | 3.89
CC(=O)N(c1cccc(F)c1)[C@@H]1O[C@H](CO)[C@@H](O[C@@H]2O[C@H](CO)[C@H](O)[C@H](O)[C@H]2O)[C@H](O)[C@H]1O | 4.01
CC(=O)N(c1cccc(-c2cn(C)nn2)c1)[C@@H]1O[C@H](CO)[C@@H](O[C@@H]2O[C@H](CO)[C@H](O)[C@H](O)[C@H]2O)[C@H](O)[C@H]1O | 4.16
CC(=O)N(c1ccccc1F)[C@@H]1O[C@H](CO)[C@@H](O[C@@H]2O[C@H](CO)[C@H](O)[C@H](O)[C@H]2O)[C@H](O)[C@H]1O | 4.03

Next item in the queue.
Any idea what its pKd is? The compound is CC(=O)N(c1cccc(CO)c1)[C@@H]1O[C@H](CO)[C@@H](O[C@@H]2O[C@H](CO)[C@H](O)[C@H](O)[C@H]2O)[C@H](O)[C@H]1O 3.96
